Reported IC50 values are given for each entry in this list.
Assay: Compound was tested for the inhibition of E-selectin-mediated cellular adhesion
Kindly provide the numeric value in µM only, without the unit symbol.

Some solved cases for reference:
Exercise: Please look up its IC50: CCO[C@@H]1O[C@@H](CO)[C@H](O)[C@H](O[C@@H]2O[C@@H](CO)[C@@H](O[C@@H]3O[C@@H](CO)[C@H](O)[C@H](O[C@]4(C(=O)O)C[C@@H](O)[C@@H](NC(C)=O)[C@H]([C@H](O)[C@H](O)CO)O4)[C@@H]3O)[C@H](O[C@@H]3O[C@@H](C)[C@@H](O)[C@H](O)[C@@H]3O)[C@@H]2NC(C)=O)[C@@H]1O
Solution: 1000

Exercise: Please look up its IC50: CCO[C@@H]1O[C@@H](CO)[C@H](O)[C@H](O[C@@H]2O[C@@H](CO)[C@@H](O[C@@H]3O[C@@H](CO)[C@H](O)[C@H](O[C@]4(C(=O)O)C[C@@H](O)[C@@H](NC(C)=O)[C@H]([C@H](O)[C@H](O)CO)O4)[C@@H]3O)[C@H](O[C@@H]3O[C@@H](C)[C@@H](O)[C@H](O)[C@@H]3O)[C@@H]2NC(=O)c2ccccc2)[C@@H]1O
Solution: 300

Exercise: Please look up its IC50: CCO[C@@H]1O[C@@H](CO)[C@H](O)[C@H](O[C@@H]2O[C@@H](CO)[C@@H](O[C@@H]3O[C@@H](CO)[C@H](O)[C@H](O[C@]4(C(=O)O)C[C@@H](O)[C@@H](NC(C)=O)[C@H]([C@H](O)[C@H](O)CO)O4)[C@@H]3O)[C@H](O[C@@H]3O[C@@H](C)[C@@H](O)[C@H](O)[C@@H]3O)[C@@H]2NC(=O)C2CCCCC2)[C@@H]1O
Solution: 2900

Please examine the following record next.
Exercise: Please look up its IC50: CCO[C@@H]1O[C@@H](CO)[C@H](O)[C@H](O[C@@H]2O[C@@H](CO)[C@@H](O[C@@H]3O[C@@H](CO)[C@H](O)[C@H](O[C@]4(C(=O)O)C[C@@H](O)[C@@H](NC(C)=O)[C@H]([C@H](O)[C@H](O)CO)O4)[C@@H]3O)[C@H](O[C@@H]3O[C@@H](C)[C@@H](O)[C@H](O)[C@@H]3O)[C@@H]2NC(=O)c2ccc3ccccc3c2)[C@@H]1O
Solution: 80
